Measured values drawn from paper PMC12736194 for this set.

TARGET: human β-amyloid (1–42) (HsAβ42) (Homo sapiens, UniProt P05067)
Construct: purchased AnaSpec Inc
Sequence (P05067 672-713 limits assumed): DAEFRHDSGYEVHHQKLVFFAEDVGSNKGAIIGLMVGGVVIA
EXPERIMENT_NOTES: Inhibition of HsAβ42 self-aggregation (thioflavin T fluorescence)
Format: biochemical
CONDITION_NOTES: HsAβ42 50 µM, compound 100 µM, 24 h, 37 °C; n.a. = not active
RECORDED_ENDPOINT: HsAβ42 self-Aggregation Inhibition, (%)
Give the number; % is assumed, so skip it.

Consider the following illustrative entries.
MOLECULE: [Fe+2].c1cc[cH-]c1.c1ccc(-c2cccc(-[c-]3cccc3)n2)nc1
UNIT_SYMBOL: %
HsAβ42 self-Aggregation Inhibition, (%): 63.7

MOLECULE: C=C[c-]1cccc1.[Fe+2].c1cc[cH-]c1 [compound 9, vinylferrocene, reference compound]
UNIT_SYMBOL: %
HsAβ42 self-Aggregation Inhibition, (%): 44.9

MOLECULE: C=C[c-]1cccc1.[Fe+2].c1ccc2c(-[c-]3cccc3)c3ccccc3nc2c1
UNIT_SYMBOL: %
HsAβ42 self-Aggregation Inhibition, (%): 86.9

MOLECULE: C=C(C)[c-]1cccc1.[Fe+2].c1ccc2nc(-[c-]3cccc3)ccc2c1
UNIT_SYMBOL: %
HsAβ42 self-Aggregation Inhibition, (%): 82.9

MOLECULE: [Fe+2].c1cc[cH-]c1.c1cc[cH-]c1
UNIT_SYMBOL: %
HsAβ42 self-Aggregation Inhibition, (%): 3.5

Qu. Look up and report HsAβ42 self-Aggregation Inhibition, (%), with human β-amyloid (1–42) (HsAβ42) (Homo sapiens, UniProt P05067) as system, for [Fe+2].c1cc[cH-]c1.c1ccc2nc(-[c-]3cccc3)ccc2c1
Ans. 79.5
